assay target: T1, biotinylated goat anti-human kappa light chain
T1 construct: positive control of the ELISA
protocol notes: ELISA, positive control; further: test concentration or dose not given here
Consider the following binders and their measured optical density readings.
readout kind: optical density (OD)

[
  {
    "binder": "374_E12 (antibody, V domains shown, Group III) VH: EVQLLESGGGLVQPGGSLRLSCAASGFTFSSYSMNWVRQAPGKGLEWVSGINYNGGYKSYADSVKGRFTISRDNSKNTLYLQMNSLRAEDTAVYYCARGANWHDTALDYWGQGTLVTVSS VL: DIQMTQSPSSLSASVGDRVTITCRASQSILSYLNWYQQKPGKAPKLVIYAATSRASGVPSRFSGSGSGTDFTLTISSLQPEDFATYYCQQSYDNPLTFGGGTKVEIK",
    "readout kind": "optical density",
    "readout number": 3.29
  },
  {
    "binder": "371_D04 (antibody, V domains shown, Group III) VH: EVQLLESGGGLVQPGGSLRLSCAASGFTFDDYSMNWVRQAPGKGLEWVAGINYNGGYTGYADSVKGRFTISRDNSKNTLYLQMNSLRAEDTAVYYCARGANWHDTHLDYWGQGTLVTVSS VL: DIQMTQSPSSLSASVGDRVTITCRASQSIVSYVNWYQQKPGKAPKLLIYAATSLASGVPSRFSGSGSGTDFTLTISSLQPEDFATYYCQQSYENPLTFGGGTKVEIK",
    "readout kind": "optical density",
    "readout number": 3.3
  },
  {
    "binder": "367_G01 (antibody, V domains shown, Group III) VH: EVQLLESGGGLVQPGGSLRLSCAASGFTFDSYGMNWVRQAPGKGLEWVASINYNSGYTGYADSVKGRFTISRDNSKNTLYLQMNSLRAEDTAVYYCARGANWHDTHLDYWGQGTLVTVSS VL: DIQMTQSPSSLSASVGDRVTITCRASQSISSYLNWYQQKPGKAPKLVIYAATSRASGVPSRFSGSGSGTDFTLTISSLQPEDFATYYCQQSYDLPLTFGGGTKVEIK",
    "readout kind": "optical density",
    "readout number": 3.58
  },
  {
    "binder": "375_F02 (antibody, V domains shown, Group III) VH: EVQLLESGGGLVQPGGSLRLSCAASGFTFSSYSMNWVRQAPGKGLEWVASINYNSGYTSYADSVKGRFTISRDNSKNTLYLQMNSLRAEDTAVYYCARGANWHDTHLDYWGQGTLVTVSS VL: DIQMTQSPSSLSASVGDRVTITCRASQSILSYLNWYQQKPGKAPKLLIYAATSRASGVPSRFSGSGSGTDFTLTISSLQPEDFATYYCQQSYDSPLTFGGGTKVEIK",
    "readout kind": "optical density",
    "readout number": 3.2
  },
  {
    "binder": "374_D10 (antibody, V domains shown, Group III) VH: EVQLLESGGGLVQPGGSLRLSCAASGFTFSSYGMHWVRQAPGKGLEWVASINYNGGYTSYADSVKGRFTISRDNSKNTLYLQMNSLRAEDTAVYYCARGANWHDTHLDYWGQGTLVTVSS VL: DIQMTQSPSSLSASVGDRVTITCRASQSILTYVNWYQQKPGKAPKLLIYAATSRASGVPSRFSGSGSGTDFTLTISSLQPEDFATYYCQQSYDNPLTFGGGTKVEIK",
    "readout kind": "optical density",
    "readout number": 3.27
  },
  {
    "binder": "375_A08 (antibody, V domains shown, Group III) VH: EVQLLESGGGLVQPGGSLRLSCAASGFTFSSYSMNWVRQAPGKGLEWVAGINYNGGYTGYADSVKGRFTISRDNSKNTLYLQMNSLRAEDTAVYYCARGANWHDTALDYWGQGTLVTVSS VL: DIQMTQSPSSLSASVGDRVTITCRASQSIVTYLNWYQQKPGKAPKLLIYAATSRASGVPSRFSGSGSGTDFTLTISSLQPEDFATYYCQQSYESPLTFGGGTKVEIK",
    "readout kind": "optical density",
    "readout number": 3.14
  },
  {
    "binder": "371_E06 (antibody, V domains shown, Group III) VH: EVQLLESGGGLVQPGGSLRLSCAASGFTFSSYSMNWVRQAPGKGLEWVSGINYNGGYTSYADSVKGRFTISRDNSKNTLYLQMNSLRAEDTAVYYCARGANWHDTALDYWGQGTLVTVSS VL: DIQMTQSPSSLSASVGDRVTITCRASQSISTYLNWYQQKPGKAPKLLIYAVTSLHSGVPSRFSGSGSGTDFTLTISSLQPEDFATYYCQQSYESPLTFGGGTKVEIK",
    "readout kind": "optical density",
    "readout number": 3.44
  },
  {
    "binder": "373_F08 (antibody, V domains shown, Group III) VH: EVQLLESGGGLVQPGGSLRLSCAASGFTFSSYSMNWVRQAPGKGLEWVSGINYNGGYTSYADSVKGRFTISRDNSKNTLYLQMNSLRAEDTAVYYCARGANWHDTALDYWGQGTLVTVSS VL: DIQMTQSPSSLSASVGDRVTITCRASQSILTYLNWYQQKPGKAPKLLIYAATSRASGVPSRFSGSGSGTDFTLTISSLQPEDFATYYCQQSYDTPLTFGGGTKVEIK",
    "readout kind": "optical density",
    "readout number": 3.21
  },
  {
    "binder": "373_H09 (antibody, V domains shown, Group III) VH: EVQLLESGGGLVQPGGSLRLSCAASGFTFSSYGMNWVRQAPGKGLEWVASINYNSGYKSYADSVKGRFTISRDNSKNTLYLQMNSLRAEDTAVYYCARGANWHDTHLDYWGQGTLVTVSS VL: DIQMTQSPSSLSASVGDRVTITCRASQSIITYLNWYQQKPGKAPKLVIYAATSRASGVPSRFSGSGSGTDFTLTISSLQPEDFATYYCQQSDDSPLTFGGGTKVEIK",
    "readout kind": "optical density",
    "readout number": 3.08
  },
  {
    "binder": "373_A05 (antibody, V domains shown, Group III) VH: EVQLLESGGGLVQPGGSLRLSCAASGFTFSDYSMNWVRQAPGKGLEWVSGINYNSGYKSYADSVKGRFTISRDNSKNTLYLQMNSLRAEDTAVYYCARGANWHDTHLDYWGQGTLVTVSS VL: DIQMTQSPSSLSASVGDRVTITCRASQSILSYVNWYQQKPGKAPKLVIYAATSRHSGVPSRFSGSGSGTDFTLTISSLQPEDFATYYCQQSYESPLTFGGGTKVEIK",
    "readout kind": "optical density",
    "readout number": 3.03
  }
]
